# measuredTarget: CSBP/p38 (Homo sapiens)
# Sequence (Q16539 whole entry): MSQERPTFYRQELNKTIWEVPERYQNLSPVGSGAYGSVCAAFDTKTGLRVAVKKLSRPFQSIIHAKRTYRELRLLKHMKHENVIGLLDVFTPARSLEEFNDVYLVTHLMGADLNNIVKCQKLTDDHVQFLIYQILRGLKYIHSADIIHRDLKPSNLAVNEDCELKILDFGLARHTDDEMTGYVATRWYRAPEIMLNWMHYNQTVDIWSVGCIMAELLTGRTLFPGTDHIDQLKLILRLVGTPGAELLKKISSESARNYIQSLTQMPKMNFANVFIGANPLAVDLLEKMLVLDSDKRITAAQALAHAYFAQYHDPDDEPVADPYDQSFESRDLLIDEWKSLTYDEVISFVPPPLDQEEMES
# testName: CSBP/p38 Kinase Assay
# testSettings: 32P transfer from ATP to EGFR-derived peptide T669; yeast-expressed, activated p38; 0.17 mM ATP; "this binding assay or a similar assay"; read-out: IC50 (positive inhibitory activity)
pIC50: −log10 of the molar value.
measuredMetric: pIC50

The value of pIC50 measured for the compound O=C1NCc2cc(Nc3ccccc3)ccc2N1c1ccccc1 [Example 1] turned out to be > 4.30

Ref: patent US6982270B1
